# assay-summary: In Vivo Pharmacokinetics Assay in mouse
# test-settings: male, Balb/c, plasma, oral dose of 10 mg/kg
measurement-kind: AUC (µM·h)
One number for each entry, in µM·h.

In: AUC for COC(=O)N[C@@H](C)CNc1nccc(-c2cn(C(C)C)nc2-c2cc(Cl)cc(NS(C)(=O)=O)c2F)n1 [Compound 9] ?
Out: 30

* * *

# assay-summary: In Vivo Pharmacokinetics Assay in mouse
# test-settings: male, Balb/c, plasma, PO 10 mg/kg
measurement-kind: Cmax at 24 h (nM)
Give bare numbers, in nM.

# count of solved cases: 3
cpd-smiles	Cmax at 24 h [nM]
COC(=O)N[C@@H](C)CNc1nccc(-c2cn(C(C)C)nc2-c2c(F)ccc(NS(C)(=O)=O)c2F)n1	600
CCCS(=O)(=O)Nc1ccc(F)c(-c2nn(C(C)C)cc2-c2ccnc(NC[C@H](C)NC(=O)OC)n2)c1F	150
COC(=O)N[C@@H](C)CNc1nccc(-c2cn(C(C)C)nc2-c2cccc(NS(C)(=O)=O)c2F)n1	2000

In: Request the reported Cmax at 24 h associated with "COC(=O)N[C@@H](C)CNc1nccc(-c2cn(C(C)C)nc2-c2cc(Cl)cc(NS(C)(=O)=O)c2F)n1"
Out: 27000

* * *

# assay-summary: Liver Microsomal Clearance Assay, mouse
# Assay type: in vitro ADME
# test-settings: extraction ratio, mouse liver microsomes
Mark y only when ER Mouse stays strictly below 0.5. Values equal to the cut-off are n.

Below, 3 compounds whose answers are already recorded.
cpd-smiles	category-label
COC(=O)N[C@@H](C)CNc1nccc(-c2cn(C(C)C)nc2-c2cc(Cl)cc(NS(C)(=O)=O)c2F)n1	y
COC(=O)N[C@@H](C)CNc1nccc(-c2cn(C(C)C)nc2-c2cccc(NS(C)(=O)=O)c2F)n1	y
CCCS(=O)(=O)Nc1cccc(-c2nn(C(C)C)cc2-c2ccnc(NC[C@H](C)NC(=O)OC)n2)c1F	n

In: Report whether reported ER Mouse is lower than 0.5 (strictly) for "CCCS(=O)(=O)Nc1cc(Cl)cc(-c2nn(C(C)C)cc2-c2ccnc(NC[C@H](C)NC(=O)OC)n2)c1F"
Out: n

In: Dear reviewer, please state whether "CCCS(=O)(=O)Nc1ccc(F)c(-c2nn(C(C)C)cc2-c2ccnc(NC[C@H](C)NC(=O)OC)n2)c1F" has ER Mouse strictly beneath 0.5.
Out: n

* * *

What AUC at 24 h was measured for each of the following?
# assay-summary: In Vivo Pharmacokinetics Assay in mouse
# test-settings: male, Balb/c, plasma, PO 10 mg/kg
One number for each entry, in µM·h.

cpd-smiles	measurement-kind	measurement
COC(=O)N[C@@H](C)CNc1nccc(-c2cn(C(C)C)nc2-c2c(F)ccc(NS(C)(=O)=O)c2F)n1	AUC at 24 h	1.1

Give me AUC at 24 h for each of these compounds, listed below.
1. CCCS(=O)(=O)Nc1ccc(F)c(-c2nn(C(C)C)cc2-c2ccnc(NC[C@H](C)NC(=O)OC)n2)c1F
2. COC(=O)N[C@@H](C)CNc1nccc(-c2cn(C(C)C)nc2-c2cccc(NS(C)(=O)=O)c2F)n1

Out:
[0.24, 3]

* * *

# assay-summary: In Vivo Pharmacokinetics Assay in mouse
# test-settings: male, Balb/c, plasma, PO 5 mg/kg, n = 1
# Protocol: Full pharmacokinetics study: Male Balb/c mice (n=3, body weights 22-25 g) or male Wistar rats (n=3, body weights 250-300 g) were administered the test compound intravenously via the lateral tail vein or orally via gavage. The formulation was typically a 2.5 mg/mL solution of the compound in 75% PEG300 and 25% D5W. Six blood samples of 50 μL each were collected serially for 24 h after dosing. […] Plasma samples were analyzed and quantified by LC-MS/MS. […]
measurement-kind: AUC at 24 h (µM·h)
Give bare numbers, in µM·h.

cpd-smiles	measurement-kind	measurement
CCCS(=O)(=O)Nc1cccc(-c2nn(C(C)C)cc2-c2ccnc(NC[C@H](C)NC(=O)OC)n2)c1F	AUC at 24 h	0.2

In: For "CCCS(=O)(=O)Nc1cc(Cl)cc(-c2nn(C(C)C)cc2-c2ccnc(NC[C@H](C)NC(=O)OC)n2)c1F" , what is its reported AUC at 24 h?
Out: 9.7
